# assaySummary: xn = mol fraction of the nth substance listed
# cond: 308.15 K; 100.5 kPa; Liquid; x1 = 0.25
# if measured viscosity < 0.9 mPa·s: fulfilled  # else: not fulfilled

[in] Input CCCC(=O)OCCC(C)C [3-methylbutyl butanoate] + CCO ; condition: viscosity strictly below 0.9 mPa·s. Does it hold?
[out] fulfilled

[in] I wonder whether CC(=O)OCCC(C)C [3-methylbutyl ethanoate] + CCO has viscosity below 0.9 mPa·s. Can you tell?
[out] fulfilled

[in] Threshold test, viscosity < 0.9 mPa·s: CCOC(=O)c1ccccc1 [ethyl benzoate] + CCO
[out] not fulfilled

[in] Does the reported viscosity of CCOC(=O)Cc1ccccc1 [ethyl phenylacetate] + CCO stay below 0.9 mPa·s?
[out] not fulfilled

[in] Decide: viscosity of CCCCCC(=O)OCC [ethyl hexanoate] + CCO strictly below 0.9 mPa·s?
[out] fulfilled

[in] For this compound, is viscosity lower than 0.9 mPa·s? CCCCCCCC(=O)OCC [ethyl octanoate] + CCO
[out] not fulfilled
